Measured on: SARS-CoV-2 3CLpro (Severe acute respiratory syndrome coronavirus 2, UniProt P0DTD1)
Measurement protocol: biochemical
Type: biochemical
Condition context: 4 h, sheet LOPAC_screen_w_protease; LOPAC1280 primary screen with protease, 5 µM compound; mean of the two replicates; read-out: mean
Counter-ions that a name gives are not always drawn.
Reported inhibition at 5 µM values for a set of compounds
Provide a numeric answer, followed by its unit.

So for CN1C[C@@H](NS(=O)(=O)N(C)C)C[C@@H]2c3cccc4c3c(cn4C)C[C@H]21 [Mesulergine hydrochloride] , the logged inhibition at 5 µM turned out to be 5.36%

So for CC(Cc1ccc(O)cc1)NCC(O)c1cc(O)cc(O)c1 (centres unmarked) [Fenoterol hydrobromide] , the logged inhibition at 5 µM turned out to be 5.3%

So for CN(C)[C@@H]1C(O)=C(C(N)=O)C(=O)[C@@]2(O)C(O)=C3C(=O)c4c(O)ccc(Cl)c4[C@@H](O)[C@H]3C[C@@H]12 [Demeclocycline hydrochloride] , the logged inhibition at 5 µM turned out to be 4.52%

So for `CC[C@H](C)C(=O)O[C@H]1CCC=C2C=C[C@H](C)[C@H](CC[C@@H]3C[C@@H](O)CC(=O)O3)[C@H]21` , the logged inhibition at 5 µM turned out to be 4.58%

So for CN(C)C(=O)Oc1cccc([N+](C)(C)C)c1 [Neostigmine bromide] , the logged inhibition at 5 µM turned out to be 5.51%

So for `CC(C)(C)c1cc(/C=C(\C#N)C(N)=S)cc(C(C)(C)C)c1O` , the logged inhibition at 5 µM turned out to be 5.5%

So for `O=c1nc2[nH]c3ccccc3nc-2c(=O)[nH]1` , the logged inhibition at 5 µM turned out to be 4.73%

So for `CCCCC1C(=O)N(c2ccccc2)N(c2ccccc2)C1=O` , the logged inhibition at 5 µM turned out to be 6.15%

All figures here come from paper PMC7587356.
